test system: L1210 leukemia ip in BDF1 mice, survival T/C; assay: NCI In Vivo Anticancer Drug Screen. Data for tumor model L1210 Leukemia (intraperitoneal) in B6D2F1 (BDF1) mice; settings: endpoint: mean survival time; dose: 300.0 mg/kg/injection; schedule: Q01DX001 (ip); vehicle: saline; higher = longer survival
Inconclusive results and toxic doses are left out.
Parameter: T/C

COc1cc2c(cc1OC)CN1CCc3cc(OC)c(OC)cc3C1C2 (stereo unspecified) | 101 % of control
CCOC(=O)C1=C(O)C(=O)C(C(=O)OCC)C1 (stereo unspecified) | 90 % of control
Nc1nc(N)c2nn(-c3ccc(C(=O)O)cc3)nc2n1 | 103 % of control
O=C(Nc1ccccc1)Oc1ccc(Br)cc1Br | 94 % of control

QUERY: Returns the measured T/C for the input molecule. Input: `Cc1ccc(N)cc1S(=O)(=O)F`
RESULT: 103 % of control

QUERY: Returns the measured T/C for the input molecule. Input: `C=C(C)C1(CCCCC)C(=O)NC(=S)NC1=O`
RESULT: 95 % of control

QUERY: Returns the measured T/C for the input molecule. Input: CC1(C)CC(C(=O)O)C(=O)O1 (stereo unspecified)
RESULT: 98 % of control

---

test system: L1210 leukemia ip in BDF1 mice, survival T/C; assay: NCI In Vivo Anticancer Drug Screen. Data for tumor model L1210 Leukemia (intraperitoneal) in B6D2F1 (BDF1) mice; details: endpoint: mean survival time; dose: 100.0 mg/kg/injection; schedule: Q01DX Z (ip); vehicle: carboxymethylcellulose (CMC); higher = longer survival
Toxic doses and inconclusive results are not listed.
Parameter: T/C

Examples from the recorded data:
Nc1nc(N)c2[nH]cnc2n1 | 91 % of control
COC(=O)C1=COC(C)C2CN3CCc4c([nH]c5cc(OC)c(OC)cc45)C3CC12 (centres undefined) | 105 % of control
S=c1nc[nH]c2c1ncn2CN1CCCCC1 | 120 % of control

Then there is this molecule:
QUERY: What is its T/C for L1210 leukemia ip in BDF1 mice, survival T/C? Entry: CCOP(=S)(N1CC1C)N1CC1C (centres undefined)
RESULT: 108 % of control

---

tested on: L1210 leukemia ip in BDF1 mice, survival T/C; assay: NCI In Vivo Anticancer Drug Screen. Data for tumor model L1210 Leukemia (intraperitoneal) in B6D2F1 (BDF1) mice; conditions: endpoint: mean survival time; dose: 400.0 mg/kg/injection; schedule: Q01DX009 (ip); vehicle: saline with Tween-80; higher = longer survival
Inconclusive results and toxic doses are left out.
Parameter: T/C

Examples from the recorded data:
O=[N+]([O-])c1ncn[nH]1 | 87 % of control
CCCCC/C(C=O)=C\c1ccccc1 | 93 % of control
Cc1cccc(C)c1NC(=O)OCCOc1ccc(Br)cc1 | 92 % of control
NC(=O)c1ccccc1NC(=O)Nc1cccc(F)c1 | 96 % of control
O=C(Nc1ccccc1O)/C(Cl)=C/Cl | 88 % of control

QUERY: Returns the measured T/C for the input compound. Input: CC(C)CCCC(C)C1CCC2C3CC=C4C=C(OC(=O)c5ccccc5)CCC4(C)C3CCC12C (configuration not stated)
RESULT: 95 % of control

QUERY: Returns the measured T/C for the input compound. Input: CC(=O)OCC1OC(Oc2ccccc2)C(OC(C)=O)C(OC(C)=O)C1OC(C)=O (configuration not stated)
RESULT: 96 % of control

QUERY: Returns the measured T/C for the input compound. Input: `O=C1C(c2ccccc2)=c2c(c3ccccc3c3ccccc23)=C1c1ccccc1`
RESULT: 93 % of control

---

test system: L1210 leukemia ip in BDF1 mice, survival T/C; experiment: NCI In Vivo Anticancer Drug Screen. Data for tumor model L1210 Leukemia (intraperitoneal) in B6D2F1 (BDF1) mice; settings: endpoint: mean survival time; dose: 100.0 mg/kg/injection; schedule: Q01DX001 (ip); vehicle: saline with Tween-80; higher = longer survival
Inconclusive results and toxic doses are left out.
The following molecules are listed with their measured T/C values.

Cn1c(=O)cc[nH]c1=O | 95 % of control
CN(C)C(=S)Oc1ccccc1C1(C)OCCO1 | 97 % of control
CN(C)N=Nc1ccc(S(N)(=O)=O)cc1 | 102 % of control
CCCCCC=C(c1ccccc1)c1ccccc1 | 92 % of control

QUERY: Returns the measured T/C for the input molecule. Input: O=C(O)NC1(c2ccccc2)OC1c1ccccc1 (stereo not given)
RESULT: 98 % of control

QUERY: Returns the measured T/C for the input molecule. Input: `COc1ccc(-n2cnc3c(=O)[nH]c(N)nc32)cc1NC(=O)Nc1cccc(S(=O)(=O)F)c1`
RESULT: 92 % of control

QUERY: Returns the measured T/C for the input molecule. Input: `O=C(Nc1cccc2c(NC(=O)c3ccccc3)cccc12)c1ccccc1`
RESULT: 92 % of control

QUERY: Returns the measured T/C for the input molecule. Input: `O=C(CS(=O)(=O)O)Nc1ccccc1`
RESULT: 94 % of control

---

system: L1210 leukemia ip in BDF1 mice, survival T/C; test: NCI In Vivo Anticancer Drug Screen. Data for tumor model L1210 Leukemia (intraperitoneal) in B6D2F1 (BDF1) mice; settings: endpoint: mean survival time; dose: 150.0 mg/kg/injection; schedule: Q01DX001 (ip); vehicle: other; higher = longer survival
Toxic doses and inconclusive results are not listed.
Parameter: T/C

Examples from the recorded data:
COc1nc(SC)nc2[nH]ccc12 | 100 % of control
O=[N+]([O-])c1ccc(-n2nccn2)cc1 | 107 % of control

QUERY: What is its T/C for L1210 leukemia ip in BDF1 mice, survival T/C? Entry: `CC/C(C)=N/NS(C)(=O)=O`
RESULT: 97 % of control

QUERY: What is its T/C for L1210 leukemia ip in BDF1 mice, survival T/C? Entry: `CC(C)CNC(=S)Nc1ccccc1`
RESULT: 98 % of control

QUERY: What is its T/C for L1210 leukemia ip in BDF1 mice, survival T/C? Entry: CCOC(=O)C(C#N)C(=N)C1CC(C)(C)OC1=O (stereo not given)
RESULT: 106 % of control

---

tested on: L1210 leukemia ip in BDF1 mice, survival T/C; experiment: NCI In Vivo Anticancer Drug Screen. Data for tumor model L1210 Leukemia (intraperitoneal) in B6D2F1 (BDF1) mice; conditions: endpoint: mean survival time; dose: 100.0 mg/kg/injection; schedule: Q01DX009 (ip); vehicle: saline sonified; higher = longer survival
Inconclusive results and toxic doses are left out.
Parameter: T/C

QUERY: Returns the measured T/C for the input compound. Input: `CNc1cc(Cl)c(Cl)cc1[N+](=O)[O-]`
RESULT: 98 % of control

QUERY: Returns the measured T/C for the input compound. Input: C=C(C)C(=O)CC(=O)C1CCc2cc(OC)ccc2C1=O (stereo not given)
RESULT: 102 % of control

QUERY: Returns the measured T/C for the input compound. Input: `CCCCCCCC/C=C\CCCCCCCC(=O)OCCCCC`
RESULT: 102 % of control

QUERY: Returns the measured T/C for the input compound. Input: `COc1cc2c(cc1I)-c1c(cc(OC)c(OC)c1OC)CC[C@@H]2NC(C)=O`
RESULT: 106 % of control

QUERY: Returns the measured T/C for the input compound. Input: `CC(CCl)(CCl)CCl`
RESULT: 106 % of control

QUERY: Returns the measured T/C for the input compound. Input: Ic1ncnc2c1ncn2C1CCCCO1 (stereo not given)
RESULT: 96 % of control

---

tested on: L1210 leukemia ip in BDF1 mice, survival T/C; experiment: NCI In Vivo Anticancer Drug Screen. Data for tumor model L1210 Leukemia (intraperitoneal) in B6D2F1 (BDF1) mice; settings: endpoint: mean survival time; dose: 25.0 mg/kg/injection; schedule: Q01DX Z (ip); vehicle: carboxymethylcellulose (CMC); higher = longer survival
Toxic doses and inconclusive results are not listed.
Parameter: T/C

CONC(=O)NC(=O)C1(c2ccccc2)CCCCC1 | 96 % of control
CCOP(=S)(N1CC1C)N1CC1C (centres undefined) | 103 % of control
Nc1nc(N)c2[nH]cnc2n1 | 93 % of control

Then there is this compound:
QUERY: Returns the measured T/C for the input compound. Input: `CN(N=O)C(=O)N(C)C(=O)N(C)N=O`
RESULT: 108 % of control

---

system: L1210 leukemia ip in BDF1 mice, survival T/C; assay: NCI In Vivo Anticancer Drug Screen. Data for tumor model L1210 Leukemia (intraperitoneal) in B6D2F1 (BDF1) mice; details: endpoint: mean survival time; dose: 200.0 mg/kg/injection; schedule: Q01DX001 (ip); vehicle: saline; higher = longer survival
Toxic doses and inconclusive results are not listed.
Parameter: T/C

CC(C)NNC(=O)c1cccnc1 | 96 % of control

QUERY: Returns the measured T/C for the input compound. Input: `CC1=NN(C)C(=O)C1`
RESULT: 103 % of control

QUERY: Returns the measured T/C for the input compound. Input: `CC(=O)Nc1ccc(S(=O)(=O)NC(C(=O)O)C(=O)O)cc1`
RESULT: 103 % of control

QUERY: Returns the measured T/C for the input compound. Input: `COC(=O)c1cc(C(=O)OC(C)(C)C)c(-c2ccc(OC)c(OC)c2)c2cc(OC)c(OC)cc12`
RESULT: 101 % of control

QUERY: Returns the measured T/C for the input compound. Input: `Nc1nc(N)c(-c2ccc(Cl)cc2)c(CO)n1`
RESULT: 104 % of control

QUERY: Returns the measured T/C for the input compound. Input: Ic1ncnc2c1ncn2C1CCCCO1 (configuration not stated)
RESULT: 107 % of control

QUERY: Returns the measured T/C for the input compound. Input: COC1C(O)C(CO)OC1n1ccc(N)nc1=O (configuration not stated)
RESULT: 95 % of control

QUERY: Returns the measured T/C for the input compound. Input: `Clc1ccc(C2OCCO2)c(Cl)c1`
RESULT: 92 % of control
